The measurements presented in this section are drawn from patent EP2669276A1.

What inhibition at 5 µM was measured for each of the following?
# EXPERIMENTAL_SYSTEM: hNPFF1 (Homo sapiens, UniProt Q9GZQ6)
# Construct: The cDNA encoding the full-length human NPFFR1 and human NPFFR2; expressed in transfected cells
# Sequence (Q9GZQ6 whole entry): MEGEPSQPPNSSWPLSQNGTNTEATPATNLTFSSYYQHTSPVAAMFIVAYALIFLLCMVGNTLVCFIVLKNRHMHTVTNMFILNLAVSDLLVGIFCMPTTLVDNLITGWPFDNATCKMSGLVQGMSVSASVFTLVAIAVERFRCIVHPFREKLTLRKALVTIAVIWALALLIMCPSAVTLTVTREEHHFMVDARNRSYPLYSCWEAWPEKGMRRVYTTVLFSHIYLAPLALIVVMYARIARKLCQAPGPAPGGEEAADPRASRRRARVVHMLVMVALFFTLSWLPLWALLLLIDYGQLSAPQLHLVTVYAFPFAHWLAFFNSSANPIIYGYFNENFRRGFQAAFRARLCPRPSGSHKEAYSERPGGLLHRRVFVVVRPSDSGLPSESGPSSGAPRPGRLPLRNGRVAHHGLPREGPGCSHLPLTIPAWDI
# ASSAY_METHOD_TEXT: Receptor binding assay with [3H]-FFRFamide on CHO cell membranes expressing SF-hNPFFR1
# STUDY_CONDITIONS: 5 µM; [3H]-FFRF-NH2 radioligand; mean of at least two experiments
Numbers only, in %.

- SAMPLE_SMILES: "O=C(N[C@@H](CCCN1CCCCC1)C(=O)NCCCc1ccccc1)c1ccccc1-c1ccccc1"
  NUMERIC_VALUE: 41
- SAMPLE_SMILES: "O=C(C=C(c1ccccc1)c1ccccc1)N[C@@H](CCCN1CCC(Cc2ccccc2)CC1)C(=O)NCCc1ccccc1"
  NUMERIC_VALUE: 12
- SAMPLE_SMILES: "COc1cccc(CN(C)CCC[C@H](NC(=O)c2ccccc2-c2ccccc2)C(=O)NCCc2ccccc2)c1"
  NUMERIC_VALUE: 50
- SAMPLE_SMILES: "O=C(N[C@@H](CCCNC1CCCCC1)C(=O)NCCc1ccccc1)c1ccccc1-c1ccccc1"
  NUMERIC_VALUE: 37
- SAMPLE_SMILES: "O=C(N[C@@H](CCCN1CCC(Cc2ccccc2)CC1)C(=O)NCCc1ccccc1)c1ccccc1"
  NUMERIC_VALUE: 32
- SAMPLE_SMILES: "COc1ccc(CN(C)CCC[C@H](NC(=O)c2ccccc2-c2ccccc2)C(=O)NCCc2ccccc2)cc1OC"
  NUMERIC_VALUE: 65

Let us move to another entry and its inhibition at 5 µM.
Field inhibition at 5 µM (entry "O=C(N[C@@H](CCCNCc1ccccc1Cl)C(=O)NCCc1ccccc1)c1ccccc1-c1ccccc1" ) reads 74

* * *

What inhibition at 5 µM was measured for each of the following?
# EXPERIMENTAL_SYSTEM: hNPFF1 (Homo sapiens)
# Construct: The cDNA encoding the full-length human NPFFR1 and human NPFFR2; expressed in transfected cells
# ASSAY_METHOD_TEXT: Receptor binding assay with [3H]-FFRFamide on CHO cell membranes expressing SF-hNPFFR1
# STUDY_CONDITIONS: 5 µM; [3H]-FFRF-NH2 radioligand; mean of at least two experiments
Give bare numbers, in %.

- SAMPLE_SMILES: "COc1ccccc1CN(C)CCC[C@H](NC(=O)c1ccccc1-c1ccccc1)C(=O)NCCc1ccccc1"
  EXPERIMENTAL_SYSTEM: "hNPFF1 (Homo sapiens)"
  inhibition at 5 µM [%]: 50

Below are some molecules; for each one, tell me its inhibition at 5 µM.
1. CN(CCC[C@H](NC(=O)c1ccccc1-c1ccccc1)C(=O)NCCc1ccccc1)Cc1cccc(Cl)c1
2. COc1cccc(CNCCC[C@H](NC(=O)c2ccccc2-c2ccccc2)C(=O)NCCc2ccccc2)c1
3. O=C(N[C@H](CCCN1CCc2ccccc2C1)C(=O)NCCc1ccccc1)c1ccccc1-c1ccccc1
4. CN(CCC[C@H](NC(=O)c1ccccc1-c1ccccc1)C(=O)NCCc1ccccc1)Cc1ccccc1Cl
5. O=C(N[C@@H](CCCN1CCC(N2C(=O)Cc3ccccc32)CC1)C(=O)NCCc1ccccc1)c1ccccc1-c1ccccc1

Solution:
1. 45
2. 60
3. 51
4. 60
5. 42

* * *

# EXPERIMENTAL_SYSTEM: hNPFF2 (Homo sapiens)
# Construct: The cDNA encoding the full-length human NPFFR1 and human NPFFR2; expressed in transfected cells
# Sequence (Q9Y5X5 whole entry): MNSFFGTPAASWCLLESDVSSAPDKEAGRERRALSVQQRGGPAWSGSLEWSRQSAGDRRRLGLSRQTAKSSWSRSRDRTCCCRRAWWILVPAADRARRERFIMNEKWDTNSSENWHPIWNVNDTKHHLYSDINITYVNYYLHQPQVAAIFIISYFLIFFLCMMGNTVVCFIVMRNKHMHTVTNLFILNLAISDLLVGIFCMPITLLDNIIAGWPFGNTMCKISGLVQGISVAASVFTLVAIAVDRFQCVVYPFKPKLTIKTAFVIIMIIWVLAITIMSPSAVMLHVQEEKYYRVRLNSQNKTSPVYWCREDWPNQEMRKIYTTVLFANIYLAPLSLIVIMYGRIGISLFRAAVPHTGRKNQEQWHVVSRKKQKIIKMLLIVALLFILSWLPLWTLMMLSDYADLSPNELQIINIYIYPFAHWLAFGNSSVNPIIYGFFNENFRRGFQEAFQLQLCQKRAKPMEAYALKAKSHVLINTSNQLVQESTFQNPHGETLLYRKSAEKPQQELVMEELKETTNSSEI
# ASSAY_METHOD_TEXT: Receptor binding assay with [3H]-FFRFamide on CHO cell membranes expressing SF-hNPFFR2
# STUDY_CONDITIONS: 0.5 µM; [3H]-FFRF-NH2 radioligand; mean of at least two experiments
What inhibition at 0.5 µM was measured for each of the following?
Answers are plain numbers, in %.

Worked examples follow.
- MOLECULE: "COc1ccc(CN(C)CCC[C@H](NC(=O)c2ccccc2-c2ccccc2)C(=O)NCCc2ccccc2)cc1OC [Compound 17]"
  inhibition at 0.5 µM / %: 18
- MOLECULE: "COc1ccc(CNCCC[C@H](NC(=O)c2ccccc2-c2ccccc2)C(=O)NCCc2ccccc2)cc1 [Compound 10]"
  inhibition at 0.5 µM / %: 11
- MOLECULE: "CC(C)CNCCC[C@H](NC(=O)c1ccccc1-c1ccccc1)C(=O)NCCc1ccccc1 [Compound 4]"
  inhibition at 0.5 µM / %: 2
- MOLECULE: "COc1ccc(-c2ccccc2C(=O)N[C@@H](CCCN2CCCCC2)C(=O)NCCCc2ccccc2)cc1 [Compound 29]"
  inhibition at 0.5 µM / %: 0
- MOLECULE: "O=C(C=C(c1ccccc1)c1ccccc1)N[C@@H](CCCN1CCC(Cc2ccccc2)CC1)C(=O)NCCc1ccccc1 [Compound 45]"
  inhibition at 0.5 µM / %: 23
- MOLECULE: "O=C(N[C@@H](CCCNCc1ccc(Cl)cc1)C(=O)NCCc1ccccc1)c1ccccc1-c1ccccc1 [Compound 14]"
  inhibition at 0.5 µM / %: 16
- MOLECULE: "O=C(N[C@@H](CCCN1CCN(C(=O)c2ccccc2)CC1)C(=O)NCCc1ccccc1)c1ccccc1-c1ccccc1 [Compound 39]"
  inhibition at 0.5 µM / %: 0
- MOLECULE: "O=C(N[C@@H](CCCNCc1cccc(Cl)c1)C(=O)NCCc1ccccc1)c1ccccc1-c1ccccc1 [Compound 13]"
  inhibition at 0.5 µM / %: 23

Let us move to another entry and its inhibition at 0.5 µM.
Field inhibition at 0.5 µM (entry O=C(N[C@@H](CCCN1CCOCC1)C(=O)NCCc1ccccc1)c1ccccc1-c1ccccc1 [Compound 36] ) reads 2

* * *

# EXPERIMENTAL_SYSTEM: hNPFF1 (Homo sapiens)
# Construct: The cDNA encoding the full-length human NPFFR1 and human NPFFR2; expressed in transfected cells
# ASSAY_METHOD_TEXT: Receptor binding assay with [3H]-FFRFamide on CHO cell membranes expressing SF-hNPFFR1
# STUDY_CONDITIONS: 0.5 µM; [3H]-FFRF-NH2 radioligand; mean of at least two experiments
ENDPOINT: inhibition at 0.5 µM
I'd appreciate it if you included the unit after the number.

Worked examples follow.
- SAMPLE_SMILES: "O=C(N[C@@H](CCCN1CCCCC1)C(=O)NCCCc1ccccc1)c1ccccc1-c1ccccc1"
  EXPERIMENTAL_SYSTEM: "hNPFF1 (Homo sapiens)"
  inhibition at 0.5 µM: "16%"
- SAMPLE_SMILES: "O=C(C=C(c1ccccc1)c1ccccc1)N[C@@H](CCCN1CCC(Cc2ccccc2)CC1)C(=O)NCCc1ccccc1"
  EXPERIMENTAL_SYSTEM: "hNPFF1 (Homo sapiens)"
  inhibition at 0.5 µM: "10%"
- SAMPLE_SMILES: "O=C(N[C@@H](CCCNCCc1ccccc1)C(=O)NCCc1ccccc1)c1ccccc1-c1ccccc1"
  EXPERIMENTAL_SYSTEM: "hNPFF1 (Homo sapiens)"
  inhibition at 0.5 µM: "29%"

Let us move to another entry and its inhibition at 0.5 µM.
Field inhibition at 0.5 µM (entry "COc1cccc(CN(C)CCC[C@H](NC(=O)c2ccccc2-c2ccccc2)C(=O)NCCc2ccccc2)c1" ) reads 7%

* * *

What inhibition at 0.5 µM was measured for each of the following?
# EXPERIMENTAL_SYSTEM: hNPFF1 (Homo sapiens, UniProt Q9GZQ6)
# Construct: The cDNA encoding the full-length human NPFFR1 and human NPFFR2; expressed in transfected cells
# ASSAY_METHOD_TEXT: Receptor binding assay with [3H]-FFRFamide on CHO cell membranes expressing SF-hNPFFR1
# STUDY_CONDITIONS: 0.5 µM; [3H]-FFRF-NH2 radioligand; mean of at least two experiments
# Method: The cDNA encoding the full-length human NPFFR1 and human NPFFR2 were subcloned into the pcDNA3 expression vector (Invitrogen, Cergy Pontoise, France) using standard molecular biology methods. […] Membranes from CHO cells stably expressing SF-hNPFFR1 or SF-hNPFFR2 were prepared as described (Becker et al., 1999). […] Non-specific binding was determined in presence of 1 µM neuropeptide FF for SF-hNPFFR2 and 1 µM neuropeptide VF for SF -hNPFFR1. […]
One number for each entry, in %.

- SAMPLE_SMILES: "O=C(N[C@@H](CCCN1CCC(Cc2ccccc2)CC1)C(=O)NCCc1ccccc1)c1ccccc1Cl"
  EXPERIMENTAL_SYSTEM: "hNPFF1 (Homo sapiens, UniProt Q9GZQ6)"
  inhibition at 0.5 µM, %: 0
- SAMPLE_SMILES: "COc1ccc(CN(C)CCC[C@H](NC(=O)c2ccccc2-c2ccccc2)C(=O)NCCc2ccccc2)cc1"
  EXPERIMENTAL_SYSTEM: "hNPFF1 (Homo sapiens, UniProt Q9GZQ6)"
  inhibition at 0.5 µM, %: 12
- SAMPLE_SMILES: "O=C(N[C@H](CCCN1CCc2ccccc2C1)C(=O)NCCc1ccccc1)c1ccccc1-c1ccccc1"
  EXPERIMENTAL_SYSTEM: "hNPFF1 (Homo sapiens, UniProt Q9GZQ6)"
  inhibition at 0.5 µM, %: 14
- SAMPLE_SMILES: "CN(CCC[C@H](NC(=O)c1ccccc1-c1ccccc1)C(=O)NCCc1ccccc1)Cc1ccc(Cl)cc1"
  EXPERIMENTAL_SYSTEM: "hNPFF1 (Homo sapiens, UniProt Q9GZQ6)"
  inhibition at 0.5 µM, %: 14
- SAMPLE_SMILES: "CC(C)CNCCC[C@H](NC(=O)c1ccccc1-c1ccccc1)C(=O)NCCc1ccccc1"
  EXPERIMENTAL_SYSTEM: "hNPFF1 (Homo sapiens, UniProt Q9GZQ6)"
  inhibition at 0.5 µM, %: 14

Below are some compounds; for each one, tell me its inhibition at 0.5 µM.
1. O=C(N[C@@H](CCCN1CCOCC1)C(=O)NCCc1ccccc1)c1ccccc1-c1ccccc1
2. CN(CCC[C@H](NC(=O)c1ccccc1-c1ccccc1)C(=O)NCCc1ccccc1)Cc1cccc(Cl)c1
3. O=C(N[C@@H](CCCN1CCC(Cc2ccccc2)CC1)C(=O)NCCc1ccccc1)c1ccc2ccccc2n1
4. O=C(N[C@@H](CCCNC1CCCCC1)C(=O)NCCc1ccccc1)c1ccccc1-c1ccccc1
5. COc1ccccc1CN(C)CCC[C@H](NC(=O)c1ccccc1-c1ccccc1)C(=O)NCCc1ccccc1
6. CN(CCC[C@H](NC(=O)c1ccccc1-c1ccccc1)C(=O)NCCc1ccccc1)Cc1ccccc1Cl
7. O=C(N[C@@H](CCCNCc1ccccc1Cl)C(=O)NCCc1ccccc1)c1ccccc1-c1ccccc1
8. O=C(N[C@@H](CCCN1CCC(Cc2ccccc2)CC1)C(=O)NCCc1ccccc1)c1ccccc1

Solution:
1. 10
2. 8
3. 11
4. 49
5. 9
6. 16
7. 32
8. 19

Below are some compounds; for each one, tell me its inhibition at 0.5 µM.
1. COc1cccc(CNCCC[C@H](NC(=O)c2ccccc2-c2ccccc2)C(=O)NCCc2ccccc2)c1
2. O=C(N[C@@H](CCCN1CCC(N2C(=O)Cc3ccccc32)CC1)C(=O)NCCc1ccccc1)c1ccccc1-c1ccccc1
3. COc1ccc(CN(C)CCC[C@H](NC(=O)c2ccccc2-c2ccccc2)C(=O)NCCc2ccccc2)cc1OC

Solution:
1. 21
2. 21
3. 17
